# Tested on: Escherichia coli TOP10;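 also: peptides expressed intracellularly from a pBAD plasmid library in pooled LB shake-flask culture, induced with 0.3% L-arabinose, DNA abundance read by NGS, three biological replicates, DESeq2 with apeglm shrinkage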
# EXPERIMENT_SUMMARY: shrunken log2 fold change of peptide-encoding DNA abundance (4.5 h post-induction vs induction); higher = less antimicrobial activity (less host growth inhibition)
# CONDITION_INFO: time post-induction: 4.5 h; library: site-saturation at positions 5, 18, 19, 20
OBSERVABLE: shrunken log2 fold change
Number only, no unit.

RRIRGRPPRLPRPRPRPIVNPRP	0.187
RRIRGRPPRLPRPRPRPEVDPRP	1.84
RRIRGRPPRLPRPRPRPSCGPRP	0.451
RRIRGRPPRLPRPRPRPPVCPRP	0.213

Input line: Provide shrunken log2 fold change, recorded with Escherichia coli TOP10, of `RRIRERPPRLPRPRPRPGKKPRP`
Output line: -0.0022

Input line: Provide shrunken log2 fold change, recorded with Escherichia coli TOP10, of `RRIRQRPPRLPRPRPRPCALPRP`
Output line: 0.0342

Input line: Provide shrunken log2 fold change, recorded with Escherichia coli TOP10, of `RRIRSRPPRLPRPRPRPYEFPRP`
Output line: -0.438
